Below, each of the compounds is paired with its reported TGI value.
system: DMS 114 small cell lung; test: NCI tumour cell line growth inhibition, 48 h

COMPOUND: CCOc1ccc2c(c1)[n+]([O-])c(-c1ccccc1)c(N)[n+]2[O-]
TGI: > 100 µM

Field: next compound
Inquiry: Query (compound): O=S(=O)(c1ccccc1)N1CCC1c1ccccc1 (configuration not stated) ; field requested: TGI
Reply text: > 100 µM

###

tested on: BT-549 breast; experiment: NCI tumour cell line growth inhibition, 48 h
Entries and their TGI
Please reply with the bare figure in µM and do not write the unit itself.

Example entries and their recorded answers appear below.
MOLECULE: CC1=C[C@H](C[C@]2(C)c3c(c4c(C)cccc4oc3=O)O[C@@H]2C)OC1=O
TGI, µM: 74.7
//
MOLECULE: Nc1nc(N)c2cc(-c3cc4ccccc4[nH]3)ccc2n1
TGI, µM: 80.3
//
MOLECULE: CC(=O)N1N=C(c2ccccc2)NC(=O)C1c1cc(C)c(O)c(C)c1 (stereo unspecified)
TGI, µM: 54.1

Inquiry: Requested read-out TGI, target or system BT-549 breast, entry c1ccc(CCCN2C3CCC2CN(CCOC(c2ccccc2)c2ccccc2)C3)cc1
Reply text: 24.9

Inquiry: Follow-up item: Cc1cc(NC(=O)NCCCOc2ccc(N3C(N)=NC(N)=NC3(C)C)cc2Cl)ccc1S(=O)(=O)F
Reply text: 21.7

###

tested on: HCT-116 colon; test: NCI tumour cell line growth inhibition, 48 h
Mark no (0) for TGI values under 6 µM, and yes (1) for everything at or above.

Worked set:
COMPOUND: CCOC(=O)Cn1nnc2ccc(Nc3nc4ccccc4nc3C(=O)OCC)cc21
LABEL: yes (1)

COMPOUND: COC(=O)C12C(=O)CC3CCC1C32C(=O)OC (stereo unspecified)
LABEL: yes (1)

COMPOUND: CC(C)C(Sc1nc(-c2ccccc2)c(-c2ccccc2)[nH]1)C(=O)N/N=C/c1ccc(Cl)cc1 (stereo unspecified)
LABEL: yes (1)

COMPOUND: Cc1cc(C)c2c(-c3ccccc3)cc(=O)[nH]c2c1
LABEL: yes (1)

COMPOUND: C/C(=N/NC(=S)N1CCCCCC1)c1cccc(/C(C)=N\NC(=S)N2CCCCCC2)n1
LABEL: no (0)

Inquiry: Is TGI at least 6 µM? Consider Cc1ccc(N=NC(=Nc2ccc(F)cc2)c2ccc(N(CCC#N)CCC#N)cc2)cc1
Reply text: yes (1)

Inquiry: Same again, this time with COc1cc2c(cc1OCCCCCOc1ccc(-c3nc4ccccc4s3)cc1)N=C[C@@H]1CCCN1C2=O
Reply text: yes (1)

Inquiry: Moving on to the next compound: O=c1[nH]nc(-c2ccc3ccccc3c2)[nH]1
Reply text: yes (1)

Inquiry: Repeat with O=C(O)CSC1=NCCN1
Reply text: yes (1)

Inquiry: Okay, and CCCN1CCC(Oc2cc(Nc3nc(Nc4cccc(F)c4C(N)=O)c4cc[nH]c4n3)c(OC)cc2Cl)CC1 ?
Reply text: no (0)

Inquiry: Same thing, different compound: CC(C)OC(=O)Nc1c([N+](=O)[O-])cc(C(F)(F)F)cc1[N+](=O)[O-]
Reply text: yes (1)

Inquiry: What do you get for O=C(c1ccccc1)[C@H]1Nc2ccc(Cl)cc2[C@H]2c3ccccc3O[C@H]21 ?
Reply text: yes (1)

Taken from PubChem BioAssay (NCI).
